Molecular target: Human FGFR2c (Homo sapiens, UniProt P21802)
Sequence (P21802 22-821): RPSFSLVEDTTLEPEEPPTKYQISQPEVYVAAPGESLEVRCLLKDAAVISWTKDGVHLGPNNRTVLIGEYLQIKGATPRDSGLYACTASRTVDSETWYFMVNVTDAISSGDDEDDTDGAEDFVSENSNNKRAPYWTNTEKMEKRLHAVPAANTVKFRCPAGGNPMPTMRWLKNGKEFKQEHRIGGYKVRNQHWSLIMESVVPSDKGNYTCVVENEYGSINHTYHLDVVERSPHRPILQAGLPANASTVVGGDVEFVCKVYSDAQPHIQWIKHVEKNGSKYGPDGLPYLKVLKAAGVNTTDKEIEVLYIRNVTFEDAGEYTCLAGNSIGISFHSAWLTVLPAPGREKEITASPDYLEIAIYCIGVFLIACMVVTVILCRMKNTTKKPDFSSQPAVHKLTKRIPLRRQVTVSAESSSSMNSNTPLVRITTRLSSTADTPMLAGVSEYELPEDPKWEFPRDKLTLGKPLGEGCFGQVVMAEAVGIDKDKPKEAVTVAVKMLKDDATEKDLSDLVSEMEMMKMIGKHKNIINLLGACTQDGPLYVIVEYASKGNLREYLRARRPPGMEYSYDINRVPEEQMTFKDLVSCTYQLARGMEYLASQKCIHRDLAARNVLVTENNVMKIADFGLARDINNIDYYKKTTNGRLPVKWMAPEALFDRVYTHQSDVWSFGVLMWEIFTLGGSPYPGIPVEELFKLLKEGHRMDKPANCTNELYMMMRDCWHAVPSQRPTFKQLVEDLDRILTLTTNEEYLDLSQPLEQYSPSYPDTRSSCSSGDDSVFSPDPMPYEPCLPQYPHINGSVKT
Experiment: FACS binding on Expi293 cells, human FGFR2c (Example 10)
Conditions: Expi293 cells overexpressing human FGFR2c
Experimental: To evaluate the binding activity of anti-FGFR2b antibodies to native FGFR2b on living cells, Expi293 cells were engineered to overexpress human FGFR2b, cyno FGFR2b, mouse FGFR2b, or human FGFR2c. Expi293 cells expressing antigens were seeded in 96-well plates, and were incubated with serially diluted anti-FGFR2b antibodies. Goat anti-human IgG [Alexa Fluor® 647] […] The change of mean fluorescent intensity (MFI) of humanized candidates BGAh9239 and BGAh9179 was measured by flow cytometry. […]
The following molecules are shown together with reported Emax (MFI) values.
Give the value, in units of MFI, as a plain number.

// solved cases for Emax (MFI) follow
molecule | measure.name | assay.value
BGAh9239: humanized anti-FGFR2b IgG1 antibody from murine BGAm1823; VH SEQ ID NO: 9, VL SEQ ID NO: 10 (antibody, V domains shown, Synthetic: VH AA; Synthetic: VL AA) VH: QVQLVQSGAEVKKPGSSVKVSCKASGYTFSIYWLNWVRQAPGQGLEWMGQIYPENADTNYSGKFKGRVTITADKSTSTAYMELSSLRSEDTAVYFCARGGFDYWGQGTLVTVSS VL: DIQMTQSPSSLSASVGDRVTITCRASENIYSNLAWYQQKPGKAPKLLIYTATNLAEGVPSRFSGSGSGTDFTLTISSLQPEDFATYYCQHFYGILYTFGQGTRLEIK | Emax (MFI) | 23848
BGAh9179: humanized anti-FGFR2b IgG1 antibody from murine BGAm1371; VH SEQ ID NO: 21, VL SEQ ID NO: 22 (antibody, V domains shown, Synthetic: VH AA; Synthetic: VL AA) VH: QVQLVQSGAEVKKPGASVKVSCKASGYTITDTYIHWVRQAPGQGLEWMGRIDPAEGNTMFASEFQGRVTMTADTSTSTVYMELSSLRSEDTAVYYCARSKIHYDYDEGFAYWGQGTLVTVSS VL: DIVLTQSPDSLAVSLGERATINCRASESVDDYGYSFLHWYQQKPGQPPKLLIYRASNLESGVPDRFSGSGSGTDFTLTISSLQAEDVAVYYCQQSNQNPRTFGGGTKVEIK | Emax (MFI) | 21749

Alright, here's another molecule for you.
Ask | So what's the measured Emax (MFI) for this one? BGAm1371: parental murine anti-FGFR2b antibody (parental mouse clone); VH SEQ ID NO: 32, VL SEQ ID NO: 34 (antibody, V domains shown, Synthetic: VH AA; Synthetic: VL AA) VH: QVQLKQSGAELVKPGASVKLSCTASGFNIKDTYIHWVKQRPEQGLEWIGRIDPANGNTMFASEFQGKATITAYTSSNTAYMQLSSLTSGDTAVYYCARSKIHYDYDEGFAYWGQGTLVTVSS VL: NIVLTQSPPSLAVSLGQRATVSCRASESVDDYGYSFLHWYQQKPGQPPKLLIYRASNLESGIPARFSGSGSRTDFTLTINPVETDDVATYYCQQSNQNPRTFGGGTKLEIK
Reply | 23051
